Biological target: DD(E) fragment of fibrin
Experiment: affinity to soluble fibrin DD(E) fragment
experimental readout: pKd
Conceptually, pKd converts a concentration in mol/L into minus its log10.

The recorded pKd for entry LPCDYYGTCXD (not fully specified; Bip at 10; cyclized with thallium trifluoroacetate; C-terminus as -CO-NHCH2C6H4CH2NH2; Synthon #2 (bb(CO)DTPA chelates, Gd) coupled to the N- and C-terminal amines) [Compound 32] equals 5.33
